Source of measurements: paper PMC5540273

System: DRAK1;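 further: KINOMEscan kinase panel screen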
Construct: gene STK17A
reported_conditions: concentration: 1 μM,replicates: in singlicate; n = 1
For each record, check the reported %Inh: if it is below 2% write yes (1), else write no (0).

1) O=c1[nH]cc(-c2ccc(O)cc2)c2sc(-c3ccncc3)cc12 [GSK1033723]: no (0)
2) C[C@@H](Oc1cc(-n2cnc3ccc(-c4ccncc4)cc32)sc1C(N)=O)c1ccccc1Cl [GSK483724]: no (0)
3) Cc1n[nH]c2cc(Nc3ccnc(Nc4cccc(CN5CCOCC5)c4)n3)ccc12 [GW682569]: no (0)
4) CS(=O)c1ccc(-c2coc3ccc(-c4n[nH]c(=O)o4)cc23)cc1 (stereo not drawn): no (0)
5) Cn1ccc2ncnc(Oc3ccc(NC(=O)Nc4cccc(C(F)(F)F)c4)c(Cl)c3)c21: yes (1)
6) COc1cccc(CNC(=O)NC2CCN(c3ccnc(Nc4cc(OC)c(OC)c(OC)c4)n3)C2)c1 (stereo not drawn) [GSK1379765]: yes (1)
7) O=C(Nc1ccccc1)c1cccc(Oc2ccc3nccn3n2)c1: no (0)
8) FC(F)(F)c1cc(Br)cc(Nc2nccc(-c3cnn4ncccc34)n2)c1 [GW810578]: no (0)
9) CC(=O)Nc1nc2cnc(Nc3cc(NC(=O)c4cccc(CC(C)(C)C#N)c4)ccc3C)nc2s1: yes (1)
10) Cc1ccc2c(-c3ccnc(Nc4ccc(C(F)(F)F)cc4)n3)cnn2n1 [GW819776]: no (0)
11) COC(=O)c1cccc(NC(=O)NC2CCN(c3ccnc(Nc4cc(OC)c(OC)c(OC)c4)n3)C2)c1 (stereo not drawn) [GSK1379767]: yes (1)
12) CCOC(=O)N1CCC(n2cnc(-c3ccc(F)cc3)c2-c2ccnc(N)n2)CC1 [SB-219952]: yes (1)
13) Cn1ccc2ncnc(Oc3ccc(NC(=O)Nc4cc(C(C)(C)C)on4)c(Cl)c3)c21: no (0)
14) Cn1cc(-c2cccc3c(N)c(C(N)=O)nnc23)cn1: no (0)
15) COc1cccc(C2=C(Nc3cccc(Cl)c3)C(=O)NC2=O)c1 [SB-341556]: yes (1)
16) CCn1c(-c2nonc2N)nc2cncc(Br)c21 [SB-738004]: no (0)
17) CSc1nccc(-c2c(-c3ccc(F)cc3)ncn2CCCN2CCOCC2)n1.Cl [SB-217146]: yes (1)
18) O=C(NCC1CC1)c1ccc(-c2cc(C(=O)NC3CC3)ccc2F)cc1 [GW810445]: yes (1)
19) Cc1cccc2c(-c3ccncc3)c(-c3ccc(F)cc3)nn12.Cl [GW461487]: no (0)
20) OCCn1cc(-c2cnc3nnn(Cc4ccc5ncccc5c4)c3n2)cn1: no (0)
21) O=C(Nc1cccc(C(F)(F)F)c1)c1cccc(Oc2ccc3nccn3n2)c1: yes (1)
22) COC(=O)c1cccc(NC(=O)NC2CCN(c3ccnc(NCc4ccc(F)cc4)n3)CC2)c1 [GSK1379860]: yes (1)
23) CCn1c(-c2nonc2N)nc2cncc(CNC3CCNCC3)c21.Cl [SB-747651]: no (0)
24) NC(=O)c1ccc(-c2cc3ncnc(SCC(=O)O)c3s2)cc1: no (0)
